Tested on: Danio rerio larvae (5 dpf)
experiment: difference in combined optomotor response to red, green and blue moving lines vs DMSO (percentage points); higher = stronger optomotor response than DMSO
experimental_parameters: 10 µM; exposure time 6 h
Counter-ions that a name gives are not always drawn.
metric_name: difference

Below, each entry is followed by its recorded difference result.
CCCCCCCCCCCCCCCCCCCCCCO | 0.854
CC(CN1c2ccccc2Sc2ccccc21)N(C)C (stereo unspecified) [Promethazine (hydrochloride)] | 4.32
CNCC(O)c1ccc(OC(=O)C(C)(C)C)c(OC(=O)C(C)(C)C)c1 (stereo unspecified) [Dipivefrin (hydrochloride)] | 2.48
O=NN(CCCl)C(=O)NCCCl | 11.5
COc1cc2c(cc1Cc1cccc(Cl)c1F)c(=O)c(C(=O)O)cn2[C@H](CO)C(C)C | -4.56
CN1CCC[C@H]1c1cccnc1 (racemic) [(±)-Nicotine] | -14.9
COc1cc(C(=O)NS(=O)(=O)c2ccccc2C)ccc1Cc1cn(C)c2ccc(NC(=O)OC3CCCC3)cc12 | -0.091
CC(C)OC(=O)[C@H](C)N[P@](=O)(OC[C@H]1O[C@@H](n2ccc(=O)[nH]c2=O)[C@](C)(F)[C@@H]1O)Oc1ccccc1 | 6.56
COc1ccc(CC2c3cc(OC)c(OC)cc3CC[N+]2(C)CCC(=O)OCCCCCOC(=O)CC[N+]2(C)CCc3cc(OC)c(OC)cc3C2Cc2ccc(OC)c(OC)c2)cc1OC (stereo unspecified) [Atracurium (besylate)] | -3.83
COc1ccccc1OCC(O)CO (stereo unspecified) | 6.79

Exercise: Given CCN(CC)CCOC(=O)C1(C2CCCCC2)CCCCC1 [Dicyclomine (hydrochloride)] , state its recorded difference.
Solution: -3.96

Exercise: Given COc1cc2c(cc1OC)[C@@H](Cc1cc(OC)c(OC)c(OC)c1)[N+](C)(CCCOC(=O)CC/C=C/CCC(=O)OCCC[N+]1(C)CCc3cc(OC)c(OC)cc3[C@H]1Cc1cc(OC)c(OC)c(OC)c1)CC2 (stereo partly specified) [Mivacurium (chloride)] , state its recorded difference.
Solution: 5.12
